Hi there, I'd appreciate the recorded inhibition for every entry that follows.
- Assay Target: Huntingtin (Homo sapiens) (UniProt P42858)
- Sequence (P42858 whole entry, looked up, stated change not applied): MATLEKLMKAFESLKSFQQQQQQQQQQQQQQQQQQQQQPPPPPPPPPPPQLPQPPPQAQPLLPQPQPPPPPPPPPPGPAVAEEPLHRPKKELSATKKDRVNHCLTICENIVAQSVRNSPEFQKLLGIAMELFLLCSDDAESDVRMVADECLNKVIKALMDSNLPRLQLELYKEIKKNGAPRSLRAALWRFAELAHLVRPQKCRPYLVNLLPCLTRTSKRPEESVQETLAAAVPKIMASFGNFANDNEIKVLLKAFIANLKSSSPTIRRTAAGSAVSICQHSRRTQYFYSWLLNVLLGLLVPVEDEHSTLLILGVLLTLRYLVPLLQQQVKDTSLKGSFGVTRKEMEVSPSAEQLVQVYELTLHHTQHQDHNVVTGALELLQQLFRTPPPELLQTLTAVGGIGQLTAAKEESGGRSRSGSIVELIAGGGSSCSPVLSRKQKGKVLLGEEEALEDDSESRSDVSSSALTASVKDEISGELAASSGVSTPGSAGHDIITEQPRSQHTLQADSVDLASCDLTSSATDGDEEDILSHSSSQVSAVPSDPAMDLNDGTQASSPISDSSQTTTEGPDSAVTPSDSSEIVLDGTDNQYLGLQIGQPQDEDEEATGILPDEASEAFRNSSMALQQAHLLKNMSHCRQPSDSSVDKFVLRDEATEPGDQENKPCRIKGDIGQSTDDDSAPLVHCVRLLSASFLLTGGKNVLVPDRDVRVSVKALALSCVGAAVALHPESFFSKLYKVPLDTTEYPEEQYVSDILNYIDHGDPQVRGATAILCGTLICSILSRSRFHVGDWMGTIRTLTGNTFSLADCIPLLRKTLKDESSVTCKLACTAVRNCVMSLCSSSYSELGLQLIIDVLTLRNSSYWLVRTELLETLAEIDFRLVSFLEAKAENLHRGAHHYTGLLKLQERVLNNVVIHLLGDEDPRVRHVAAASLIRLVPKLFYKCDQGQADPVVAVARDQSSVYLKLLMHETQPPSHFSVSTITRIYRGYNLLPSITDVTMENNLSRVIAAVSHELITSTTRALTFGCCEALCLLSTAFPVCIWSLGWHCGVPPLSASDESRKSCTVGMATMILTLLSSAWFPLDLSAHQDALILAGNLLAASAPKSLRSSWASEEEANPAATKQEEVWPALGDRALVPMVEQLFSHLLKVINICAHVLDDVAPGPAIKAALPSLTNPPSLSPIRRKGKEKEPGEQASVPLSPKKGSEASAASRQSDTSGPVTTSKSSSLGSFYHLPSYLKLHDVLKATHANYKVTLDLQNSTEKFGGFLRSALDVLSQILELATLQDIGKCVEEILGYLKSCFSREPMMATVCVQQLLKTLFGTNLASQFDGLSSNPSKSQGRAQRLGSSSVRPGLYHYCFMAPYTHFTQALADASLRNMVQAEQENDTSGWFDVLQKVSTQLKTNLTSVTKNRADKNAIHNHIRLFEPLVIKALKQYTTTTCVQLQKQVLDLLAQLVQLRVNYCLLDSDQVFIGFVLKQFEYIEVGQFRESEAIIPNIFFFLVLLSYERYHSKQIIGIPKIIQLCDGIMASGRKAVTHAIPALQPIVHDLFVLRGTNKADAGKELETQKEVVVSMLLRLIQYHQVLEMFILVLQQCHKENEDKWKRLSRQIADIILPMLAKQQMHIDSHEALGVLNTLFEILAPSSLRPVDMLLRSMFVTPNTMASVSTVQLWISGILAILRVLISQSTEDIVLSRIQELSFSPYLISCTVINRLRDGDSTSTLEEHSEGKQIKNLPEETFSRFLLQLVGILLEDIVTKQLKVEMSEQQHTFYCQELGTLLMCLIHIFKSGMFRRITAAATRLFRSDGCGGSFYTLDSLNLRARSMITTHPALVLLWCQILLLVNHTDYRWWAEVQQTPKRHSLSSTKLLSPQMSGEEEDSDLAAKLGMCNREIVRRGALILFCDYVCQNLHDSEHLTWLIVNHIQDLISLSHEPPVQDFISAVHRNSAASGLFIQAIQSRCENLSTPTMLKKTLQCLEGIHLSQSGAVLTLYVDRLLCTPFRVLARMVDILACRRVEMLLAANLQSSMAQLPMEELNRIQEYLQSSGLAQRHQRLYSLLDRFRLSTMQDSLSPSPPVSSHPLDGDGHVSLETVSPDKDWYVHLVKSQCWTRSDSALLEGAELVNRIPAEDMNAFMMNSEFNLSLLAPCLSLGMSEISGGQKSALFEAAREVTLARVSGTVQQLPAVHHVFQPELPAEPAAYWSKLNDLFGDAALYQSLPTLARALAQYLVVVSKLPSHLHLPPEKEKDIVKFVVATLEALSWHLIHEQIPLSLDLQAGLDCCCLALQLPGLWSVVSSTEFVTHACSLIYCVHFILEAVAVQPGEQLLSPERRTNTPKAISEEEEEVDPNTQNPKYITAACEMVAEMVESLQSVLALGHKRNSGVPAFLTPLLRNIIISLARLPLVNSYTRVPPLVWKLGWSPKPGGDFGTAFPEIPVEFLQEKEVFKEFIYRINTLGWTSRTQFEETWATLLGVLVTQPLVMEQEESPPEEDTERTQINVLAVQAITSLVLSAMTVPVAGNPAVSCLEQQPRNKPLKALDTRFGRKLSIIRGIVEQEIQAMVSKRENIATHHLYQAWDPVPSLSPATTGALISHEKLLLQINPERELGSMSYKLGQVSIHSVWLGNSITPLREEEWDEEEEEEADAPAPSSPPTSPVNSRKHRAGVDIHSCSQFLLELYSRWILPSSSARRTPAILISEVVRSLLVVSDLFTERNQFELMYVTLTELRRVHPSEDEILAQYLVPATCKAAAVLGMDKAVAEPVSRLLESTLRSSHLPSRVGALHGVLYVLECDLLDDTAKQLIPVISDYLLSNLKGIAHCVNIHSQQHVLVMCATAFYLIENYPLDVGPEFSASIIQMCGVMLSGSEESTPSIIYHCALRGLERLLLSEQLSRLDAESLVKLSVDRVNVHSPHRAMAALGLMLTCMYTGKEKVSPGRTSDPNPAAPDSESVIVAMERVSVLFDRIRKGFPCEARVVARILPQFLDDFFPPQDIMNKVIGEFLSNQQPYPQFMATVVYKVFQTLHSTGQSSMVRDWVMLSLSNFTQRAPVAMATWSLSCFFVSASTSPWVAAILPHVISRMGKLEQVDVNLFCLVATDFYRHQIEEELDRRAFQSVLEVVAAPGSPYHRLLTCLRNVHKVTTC
- Procedure Text: mutant huntingtin-calmodulin interaction inhibitors – biochemical, AlphaScreen, primary screen (AID 1671202);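 also: 0% = both proteins with DMSO and 100% = one protein alone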
- Experimental Conditions: AlphaScreen His-mHTT/GST-CaM binding, luminescence; at 15 µM, hits give high values
The whole screen tested about 190,000 compounds, of which about 6,900 (3.6%) were called active. The list comes from a sample in which actives are over-represented; it also holds close analogues and randomly drawn compounds.

So for CC1CC(=O)Nc2c1c(NC(=O)c1ccc3c(c1)OCO3)nn2C (stereo not given) , the logged inhibition turned out to be -9.4% (inactive)

inhibition measured on CC(=O)N(C)CC(=O)N1N=C(c2cccs2)CC1c1ccccc1Cl (stereo not given) = 1.2% (inactive)

Summary for this molecule, Clc1ncnc2sc3c(c12)CCCCC3 : inhibition is -7.58% (inactive)

molecule Cc1ccc(CN2CCCn3nc(C(=O)NCc4ccccc4Cl)cc3C2=O)cc1 , inhibition observed: -2.01% (inactive)

For this molecule ( Cc1ccc(S(=O)(=O)NCC2CCN(C(=O)Oc3ccccc3)CC2)s1 ), measured inhibition is -6.7% (inactive)

The measured inhibition associated with O=C(Cc1ccc(F)cc1Cl)N1CCCC1c1cccc(F)c1 (stereo not given) reads -1.36% (inactive)

Field inhibition (entry CCOc1ccccc1C(=O)Nc1c2c(nn1-c1cccc(Cl)c1)CSC2 ) reads 0% (inactive)

The reported inhibition of the molecule COc1cc(OC)c(OC)cc1/C=C1/CC/C(=C\c2cc(OC)c(OC)cc2OC)C1=O was 23% (inactive)

inhibition reading for O=c1cc(-c2ccccc2F)oc2ccc(Cl)cc12 : -8.7% (inactive)

Value of measured inhibition for the entry N#CC1=C(N)N2CCN3C(N)=C(C#N)C1(c1ccccc1)C23c1ccccc1 (stereo not given) : 21% (inactive)

So, Cc1cc(CNC(=O)CSc2ccncc2)no1 ? Its inhibition was -14.6% (inactive)

Lab book: inhibition of CC(=O)N(C)CC(=O)N1N=C(c2ccccc2Cl)CC1c1ccccc1Cl (stereo not given) noted as 56.2% (active)

// recorded inhibition for COc1cc2c(cc1OC)C(C(=O)O)C(c1cccc([N+](=O)[O-])c1)N(C)C2=O (stereo not given) : 0% (inactive)

get_value(item= CC(C)(C)C1=CC(=Nc2ccccc2N)C=C(C(C)(C)C)C1O (stereo not given) , readout=inhibition) returns 97% (active)

Value of measured inhibition for the entry Cc1ccc2c(c1)C(c1ccc(F)cc1)N(C(=O)c1c(F)cccc1Cl)CC(=O)N2 (stereo not given) : 22% (inactive)

Entry CC(C)C1N=C2c3ccccc3N=C(SCC(=O)c3ccc(O)c(O)c3)N2C1=O (stereo not given) — recorded inhibition = 20% (inactive)

// recorded inhibition for N#Cc1ccc(C(=O)N2CCCC2c2nc(-c3cccc(C(F)(F)F)c3)no2)cc1 (stereo not given) : 2.8% (inactive)

// inhibition value for O=C(CSC1=Nc2ccccc2C2=NC(Cc3ccccc3)C(=O)N12)c1ccc(O)c(O)c1 (stereo not given) : 57% (active)

# molecule COc1cc(C=C2C(=O)c3ccccc3C2=O)ccc1OCc1ccccc1 ; its inhibition = 4% (inactive)

// inhibition value for COc1ccc(CCNC(=O)N2CC(c3nc(-c4ccccn4)no3)C2)cc1 : -18.5% (inactive)

Please fill in: inhibition reported for O=C(c1cccnc1)N1CCCC1c1nc(-c2cccc(C(F)(F)F)c2)no1 (stereo not given) = 27.6% (inactive)

Consider COc1ccc(NC(=O)C2=C(C)Nc3ncnn3C2c2cc(OC)c(OC)cc2OC)cc1 (stereo not given) . Its measured inhibition is 0% (inactive)

Lab note: Cc1ccc(C)c(CNC(=O)c2cc3n(n2)CCCN(Cc2ccc(F)cc2)C3=O)c1 gave inhibition of 50.5% (active)

The recorded inhibition for entry CSC1=C(C#N)C(c2cccs2)CC(=O)N1 (stereo not given) equals -7.7% (inactive)

inhibition measured on O=C(CSC1=Nc2ccccc2C2=NC(Cc3ccccc3)C(=O)N12)NC1CCCCC1 (stereo not given) = 39% (inactive)

inhibition measured on COc1cc(NC(=O)c2noc3c2CCCC3)cc(OC)c1OC = 1.68% (inactive)

inhibition in this record for O=C(NCCc1ccccc1)c1ccc(I)cc1 : -3% (inactive)

GET /value?item= CCN(CC)CCCNc1c(CCC#N)c(C)c(C#N)c2nc3ccccc3n12 &field=inhibition returns 4% (inactive)

CN(C(=O)c1ccccn1)C1(C(=O)NC2CCCC2)CCCCC1 yielded inhibition of -4% (inactive)

Entry O=c1[nH]c(-c2ccccc2)cn1-c1cccc(C(F)(F)F)c1 , inhibition reported as 12% (inactive)

Record O=C1CN(C(=O)c2ccccc2F)C(c2ccc(F)cc2)c2cc(F)ccc2N1 (stereo not given) . Reported inhibition: -4% (inactive)

What the record says about NNc1ncnc2sc3c(c12)CCCC3 : inhibition is 100% (active)

// CC(C)C(=O)N(C)CC(=O)N1N=C(c2ccc(F)cc2)CC1c1ccc(F)cc1 (stereo not given) : inhibition value = 29.5% (inactive)

The reported inhibition of the molecule O=C(Nc1ccc(C(F)(F)F)cc1)N1CCc2c(nc[nH]c2=O)C1 was -3.4% (inactive)

// inhibition value for Cc1ccc(C)c(NC(=O)c2cc3n(n2)CCCN(Cc2ccccc2)C3=O)c1 : -4.93% (inactive)

In plain terms, CC1=C(C(=O)Nc2ccc(Cl)cc2)C(c2ccc(Cl)cc2Cl)n2ncnc2N1 (stereo not given) has a documented inhibition of 59% (active)

Documented inhibition of COc1ccc(CC(=O)Nc2c3c(nc4c2CCC4)CCCC3)cc1OC : 2% (inactive)

CC(C)=CCOc1ccc2cc(-c3ccccc3)c(=O)oc2c1 has a reported inhibition of -45.3% (inactive)

Please fill in: inhibition reported for Cc1ccc2c(c1)C(c1ccc(F)cc1)N(C(=O)c1ccc(C)c(C)c1)CC(=O)N2 (stereo not given) = 69% (active)

Reported inhibition of Cc1cc(NC(=O)N2CC3CCCN3c3ccccc32)ccc1Br (stereo not given) : 87% (active)
